Biological target: T1, extracellular domain of activin receptor type IIB (ActRIIBecd), biotinylated (Homo sapiens (Human), UniProt Q13705 27-117, amino-biotinylated with amine-PEG3-Biotin)
T1 construct: immobilised on a streptavidin-coated sensor chip; also called biotinylated ActRIIBecd; extracellular domain of ActRIIB
T1 sequence: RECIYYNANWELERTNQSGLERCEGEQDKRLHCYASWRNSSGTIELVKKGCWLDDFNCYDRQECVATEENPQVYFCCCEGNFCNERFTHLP
Assay: BIAcore SPR, biotinylated ActRIIBecd on chip; SD ±15.74 nM
Description: Biosensor experiments. In one embodiment, experiments were performed on a BIAcore™ T100/T200 instrument (Pharmacia Biosensor AB) in the multichannel mode (serial flow path involving flow cells 1+2+3+4). Flow rate was 10 μl/min; temperature was 25° C.; and data were recorded at 2.5 points/s. All four segments of a sensor chip CMS were coated with streptavidin (Sigma) to a density of 2000 pg/mm² (2000 resonance units) by the aminocoupling procedure. […]
ASSAY METRIC: Kd (µM)
Write it as a number; the unit µM goes unstated.

Kd reported for this binder Recombinant polypeptide of clones 23 + 24 (designed binder) NSKIPKACCVPTELSAISMLYLDENEKPVLKNYQDMVVEGCGCRNSKDPKACCVPTELSAISMLYLDENEKVVLKNYQDMVVHGCGCR : 0.0618

The measured values listed here are drawn from patent US20190071480A1.
